# Test system: KARPAS-299
# measurementProtocol: Antiproliferative activity against human KARPAS299 cells after 72 hrs by CellTiter-Glo luminescent cell viability assay
# Format: functional, cell-based
Calls of active or inactive are those of the source. The rule behind the calls is not given here.
Answer with one of the outcomes active, inactive

Please review the following examples before continuing.
Q: Field: outcome | Entry: Cc1cc(Nc2ncc(Cl)c(Nc3ccccc3S(=O)(=O)C(C)C)n2)c(OC(C)C)cc1C1CCN(CCOCCOCCNC(=O)CNc2cccc3c2C(=O)N(C2CCCNC2=O)C3=O)CC1 (stereo unspecified)
A: inactive

Q: Field: outcome | Entry: Cc1cc(Nc2ncc(Cl)c(Nc3ccccc3S(=O)(=O)C(C)C)n2)c(OC(C)C)cc1C1CCN(CCOCCOCCNC(=O)CNc2cccc3c2C(=O)N(C2CCC(=O)NC2=O)C3=O)CC1 (stereo unspecified)
A: active

Q: Field: outcome | Entry: COc1cc(N2CCC(N3CCN(C)CC3)CC2)ccc1Nc1ncc(Cl)c(Nc2ccccc2S(=O)(=O)C(C)C)n1
A: active

Q: Field: outcome | Entry: COc1cc(N2CCN(CCOCCOCCNC(=O)CNc3cccc4c3C(=O)N(C3CCCNC3=O)C4=O)CC2)ccc1Nc1ncc(Cl)c(Nc2ccccc2S(=O)(=O)C(C)C)n1 (stereo unspecified)
A: inactive

Q: Field: outcome | Entry: COc1cc(N2CCN(CCOCCOCCNC(=O)CNc3cccc4c3C(=O)N(C3CCC(=O)NC3=O)C4=O)CC2)ccc1Nc1ncc(Cl)c(Nc2ccccc2S(=O)(=O)C(C)C)n1 (stereo unspecified)
A: active

Please examine the following record next.
Q: Field: outcome | Entry: Cc1cc(Nc2ncc(Cl)c(Nc3ccccc3S(=O)(=O)C(C)C)n2)c(OC(C)C)cc1C1CCNCC1
A: active

----------
# Tested on: SU-DHL-1
# measurementProtocol: Antiproliferative activity against human SU-DHL1 cells after 72 hrs by CellTiter-Glo luminescent cell viability assay
# Assay type: functional, cell-based
Activity calls are given as the source filed them. The rule behind the calls is not given here.
Answer with one of the outcomes active, inactive

Please review the following examples before continuing.
Q: Field: outcome | Entry: Cc1cc(Nc2ncc(Cl)c(Nc3ccccc3S(=O)(=O)C(C)C)n2)c(OC(C)C)cc1C1CCN(CCOCCOCCNC(=O)CNc2cccc3c2C(=O)N(C2CCC(=O)NC2=O)C3=O)CC1 (stereo unspecified)
A: active

Q: Field: outcome | Entry: Cc1cc(Nc2ncc(Cl)c(Nc3ccccc3S(=O)(=O)C(C)C)n2)c(OC(C)C)cc1C1CCN(CCOCCOCCNC(=O)CNc2cccc3c2C(=O)N(C2CCCNC2=O)C3=O)CC1 (stereo unspecified)
A: inactive

Q: Field: outcome | Entry: COc1cc(N2CCN(CCOCCOCCNC(=O)CNc3cccc4c3C(=O)N(C3CCC(=O)NC3=O)C4=O)CC2)ccc1Nc1ncc(Cl)c(Nc2ccccc2S(=O)(=O)C(C)C)n1 (stereo unspecified)
A: active

Q: Field: outcome | Entry: COc1cc(N2CCC(N3CCN(C)CC3)CC2)ccc1Nc1ncc(Cl)c(Nc2ccccc2S(=O)(=O)C(C)C)n1
A: active

Q: Field: outcome | Entry: Cc1cc(Nc2ncc(Cl)c(Nc3ccccc3S(=O)(=O)C(C)C)n2)c(OC(C)C)cc1C1CCNCC1
A: active

Please examine the following record next.
Q: Field: outcome | Entry: COc1cc(N2CCN(CCOCCOCCNC(=O)CNc3cccc4c3C(=O)N(C3CCCNC3=O)C4=O)CC2)ccc1Nc1ncc(Cl)c(Nc2ccccc2S(=O)(=O)C(C)C)n1 (stereo unspecified)
A: inactive
